test system: MS2 coat protein; experiment: apparent KD of MS2 coat protein; designed switch direction (-1 OFF switch, 1 ON switch): -1; higher = weaker reporter binding; conditions: input ligand: none
Would you mind telling me the reported apparent KD of MS2 coat protein of each entry?
Give the number; nM is assumed, so skip it.

Which apparent KD of MS2 coat protein value belongs to GCCGUGUCAGGAUAUCGGCGGCUAUAAGUGUACGUACCUUUCGAGAAGGGACAUGAGGAUCACCCAUGUAAAUC [Eternabot (L1) Solution 25] (Eterna round: R97, puzzle: Exclusion 4) ?
28.9

Which apparent KD of MS2 coat protein value belongs to CCAGCGUAUGUAAGGAUAUGCUGGUCGAAAGAUCAGCAGAAGGUACAUGAGGAUCACCCAUGUGUAAUCGUUGG [Mod of JL 5 - Jieux - Brourd's mod of Exclusion 4] (Eterna round: R97, puzzle: Brourd's mod of Exclusion 4) ?
18.9

Which apparent KD of MS2 coat protein value belongs to UCUUUACAUGAGGAUCACCCAUGUCAGGAUAUCAACUUUUGGGACUUCGGAUAUAAGAUGAGAAGGGACACCGG [Eternabot (L2) Solution 53] (Eterna round: R97, puzzle: Exclusion 1) ?
19.4

Which apparent KD of MS2 coat protein value belongs to GUAAUACAUGAGGAUCACCCAUGUUAGGAUAUCUGCAGGACGUCUCCCGUAUAUCCGUAGAGAAGGGACAGUGG [Eternabot (L1) Solution 20] (Eterna round: R97, puzzle: Exclusion 1) ?
33.6

Which apparent KD of MS2 coat protein value belongs to CAUGUGUGAGGAUAUCCUAGACUAAUGGAGACGCUACCGUGGGAGAAGGUACAUGAGGAUCACCCAUGUGGACC [Eternabot (L1) Solution 88] (Eterna round: R97, puzzle: Exclusion 4) ?
32.2

Which apparent KD of MS2 coat protein value belongs to UAUAUGUCAGGAUAUUGUUAAUUUAGUUGUUUGUAUUAGUUCGAGAAGGGACAUGAGGAUCACCCAUGUUGUUU [Ex4 #57] (Eterna round: R97, puzzle: Exclusion 4) ?
29.6

Which apparent KD of MS2 coat protein value belongs to ACAUGAGGAUCACCCAUGUGACAAUAAUGGCUGAUACAGAGACAGGAUAUAGGUGAAUAUCUAACCUAGAAGGGUCAUGACUGG [Deportation 71 - Jieux - Exclusion NG 3] (Eterna round: R96, puzzle: Exclusion NG 3) ?
54

Which apparent KD of MS2 coat protein value belongs to AGAAAACAUGAGGAUCACCCAUGUGAGGAUAUCGCGCUUAACAGGGUCACAGUGGUGUCGAGAAGGUGCCUGGG [Eternabot (L1) Solution 55] (Eterna round: R97, puzzle: Exclusion 1) ?
66.3

Which apparent KD of MS2 coat protein value belongs to GAUCAACAUGAGGAUCACCCAUGUGAGGAUAUUGACUUGCUCACUUUCCCAUCAGAGUCGAGAAGGCGCAUCUG [1986#21] (Eterna round: R97, puzzle: Exclusion 1) ?
40.8

* * *

system: K4 kissing-loop RNA reporter; assay: apparent KD of K4 kissing-loop reporter; higher = weaker reporter binding; settings: Eterna round: R107; input ligand: arginine 13.2 mM;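 further: bound reporter read as fluorescence of individual clusters on recovered sequencing chips by microscopy, with normalized cluster intensities fitted with a binding model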
Kindly return 1 (yes) if reported apparent KD of K4 kissing-loop reporter is no lower than 300 nM; return 0 (no) if it is lower.

Given the entry GCCUAGCAGGGAAGGAGCGCCAUAAGAAGUAAAGGAGGGAGUUGAGUGAUGUUCAAAAUGUGGCAGGUAGGUCGCCCUGCUAGGC [KL-SSArg B13] , answer whether its apparent KD of K4 kissing-loop reporter meets or surpasses 300 nM.
1 (yes)

Given the entry UUUCGCUUCGUCUGAUAUAAUUGGCCAGAAGGAGCGGUAGAAUUACCAGGUAGGUCGCUGGCCCAGUGAUGUUGGGACUAGCGUG [Isrianve] , answer whether its apparent KD of K4 kissing-loop reporter meets or surpasses 300 nM.
0 (no)

Given the entry GUUGAUCAUGGAAGGAGCGCCCAUUGUCGACACGAGUGAUGUUCGUGUCGUUAAUUAUGAGGGCAGGUAGGUCGCCGUGUGCUUU [Soqugebi] , answer whether its apparent KD of K4 kissing-loop reporter meets or surpasses 300 nM.
0 (no)

Given the entry UACUAUAUUCUGUCGUUUUUAUUAGUUUGUCAGGAUAUCGUUUAUUCGAGAAGGGACACUAUCUAGUGAUGUUAGAUAUUUCUUU [JR_Nu3_ExcFMNA_Sub030] , answer whether its apparent KD of K4 kissing-loop reporter meets or surpasses 300 nM.
0 (no)

Given the entry UCGCCAAAGUCGGCCGCCACUCCGGGCCCUAUAAAUGGGCGCAGUGAUGUUGCGGCUAGGCCUCUGAGGACCGGGACUUUGUAAA [Tiesgeza] , answer whether its apparent KD of K4 kissing-loop reporter meets or surpasses 300 nM.
0 (no)

Given the entry CACGAUGAAUUCUCUAGGAGUGAUGUUUUUCGAGGACCGGUACGGCCGCCACUCGGACGACGAGUGUGGUAGCGGGCUGAAGACU [zgullin] , answer whether its apparent KD of K4 kissing-loop reporter meets or surpasses 300 nM.
0 (no)

Given the entry CCUUGGAUUAGCUGUACUUUUCUACGGGAUACCAGUGCGUAACACCACCCUUGGCAGCCCGAUUACCGGCAGUGAUGUUGCCUCU [theeternabot_sameState_KL_Theo_A_41] , answer whether its apparent KD of K4 kissing-loop reporter meets or surpasses 300 nM.
0 (no)

Given the entry ACAGGAUCGAAGAUCCUGAGCAGUCAAAACCGAGGACCGGUACGGCCGCCACUCGGAGUGAUGUUCCGAAGACUGCAAAAUAAAA [#SwitchBubble 3] , answer whether its apparent KD of K4 kissing-loop reporter meets or surpasses 300 nM.
1 (yes)

Given the entry AUGACGGGUAGUGAUGUUAUCCACGAUGGGAAGGAUAUCAACCGUGUGAGAAGGUCCUUAUCGGUGCGGCACAUGCAGGUACUAC [theeternabot_sameState_KL_FMN_A_41] , answer whether its apparent KD of K4 kissing-loop reporter meets or surpasses 300 nM.
0 (no)

Given the entry CCCUCACGAGUGAUGUUCGUAGGGUACAGUCAGGAUAUCAUGCGGUUGAGAAGGGACAGAGAGGGCGGCCACGGGUUGCUCCUCU [Lariusteza] , answer whether its apparent KD of K4 kissing-loop reporter meets or surpasses 300 nM.
0 (no)

Given the entry AGACUACCACACUGUCAAUAGACAGUGAACUAGGAUAUGCUGAUAAGCAGAAGGAGUGAUGUUCCUAAAGGUAGUCAAAUAUAAU [FmnAX 14 #SwitchBubble #StaticStem #K4Early] , answer whether its apparent KD of K4 kissing-loop reporter meets or surpasses 300 nM.
1 (yes)

Given the entry AGACUACCAACACUGUCAAUAGACAGUGACUAGGAUAUGCUGAUAAGCAGAAGGAGUGAUGUUCCUAAUAGAAAGGUAGUCAAAU [FmnAX 17 #SwitchBubble #StaticStem #K4Early] , answer whether its apparent KD of K4 kissing-loop reporter meets or surpasses 300 nM.
0 (no)

Given the entry AAAUAGAUCAGUCAACCAGUGAUGUUGGAAGGAGCGUGCGAAAGCACAGGUAGGUCGCCAUAAUAAAAUUGGCUGAUCAAAAUAA , answer whether its apparent KD of K4 kissing-loop reporter meets or surpasses 300 nM.
1 (yes)

Given the entry CUCGAGUGAUGUUCGAUUAUUUAUACAGAUACCAGUGAAUUUUAACACCCUUGGCAGCUGGUUGUAUCAUUGUUUUUUACAAAAG [JR_ExcTheophyA_Sub007] , answer whether its apparent KD of K4 kissing-loop reporter meets or surpasses 300 nM.
0 (no)

Given the entry UGCCGCAAGGCGAGCGCUCCCACUCCGGAAGGAGCGCCCGGAAGGGCAGGUAGGUCGCCGGAGUGAUGUUCCGGUGGAGGGCUCG [#2 Exclusion - Arginine A Attempt #26 (Inspired by Omei)] , answer whether its apparent KD of K4 kissing-loop reporter meets or surpasses 300 nM.
0 (no)

Given the entry GGAUAGGACAGAGGAUAUUGGUAGUGAUGUUACCAAAUAAAUAAACAGUCUACAAAGUAGGCUGACCAAGAAGGCUGUCCUAUCG [FmnBX 24 #SwitchBubble #StaticStem #Palindromic] , answer whether its apparent KD of K4 kissing-loop reporter meets or surpasses 300 nM.
0 (no)

Given the entry UGGAGUUGACGAAAAGUCAACUCCUGAGAAGGAGCGGACGAAAGUCCAGGUAGGUCGCUCACUACCAGUGAUGUUGGUAAUUCAA [#OpenEnded 3] , answer whether its apparent KD of K4 kissing-loop reporter meets or surpasses 300 nM.
0 (no)

Given the entry GAGGUGCUGAUGCGGUGGCCGGUGGUCGUGCGAGGACCGGUACGGCCGCCACUCGCAUGAGUGAUGUUCAUGUGUCGUCGUCGUC [whbob_EX_Tryp_A_t3] , answer whether its apparent KD of K4 kissing-loop reporter meets or surpasses 300 nM.
0 (no)

Given the entry CGACGCCGGUCGGCCGCCACUCACAGCAGCCAGUGAUGUUGGAUUGUAGCGGAGUGAUGUUUCGCGAGGACCGGGACUGCAGUCG [Same State Tryptophan B GF 12] , answer whether its apparent KD of K4 kissing-loop reporter meets or surpasses 300 nM.
0 (no)

Given the entry CUCCGACUAUCGGCCGCCACUAUCGGAAAGUCCACGGACAUUCAAUGCAGUUAGUGAUGUUAACGUAGGACCGGGAUGAUUUGUA [theeternabot_sameState_KL_Trp_B_9] , answer whether its apparent KD of K4 kissing-loop reporter meets or surpasses 300 nM.
1 (yes)

Given the entry GAAUCAUGUAGAAGGAGCGUUAGAAGUUAUAGGGAUGAGUGAUGUUUGUGUUAGUAAAUCUGACAGGUAGGUCGCUACAGAAGGA [KL-SSArg B21 #analogue] , answer whether its apparent KD of K4 kissing-loop reporter meets or surpasses 300 nM.
0 (no)

Given the entry UAUAUAGUGAUGUUAUAUGGGAAGGAGUUACGAGGACCGGUACGGCCGCCACUCGAAACGAGUGAGGAUUUGGGAGAUUGGGUUU [SSTryptA.S] , answer whether its apparent KD of K4 kissing-loop reporter meets or surpasses 300 nM.
0 (no)

Given the entry UAUUAAUUGUCAGGAUAUCGUAUUCGAGUGAUGUUCGUAUAUCGACGAUAGUCGAUAUUAUCUAUACGAGAAGGGACAUUAUUUA [JR_SSFMNB_Sub006] , answer whether its apparent KD of K4 kissing-loop reporter meets or surpasses 300 nM.
1 (yes)
